biological target: Recombinant human his-tagged IGF R extracellular domain protein (human) (UniProt P08069); assay: SPR, Ab captured via anti-huIgG Fc, pH 7.4
Quantity: koff (s⁻¹)
Provide only the numeric value, understood in s⁻¹.

Below, each entry is followed by its recorded koff result.
>>> reported_result("VRDN-02056 (antibody, V domains shown) VH: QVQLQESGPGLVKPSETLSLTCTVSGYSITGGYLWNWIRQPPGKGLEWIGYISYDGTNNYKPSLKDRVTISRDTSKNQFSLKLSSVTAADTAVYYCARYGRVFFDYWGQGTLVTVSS VL: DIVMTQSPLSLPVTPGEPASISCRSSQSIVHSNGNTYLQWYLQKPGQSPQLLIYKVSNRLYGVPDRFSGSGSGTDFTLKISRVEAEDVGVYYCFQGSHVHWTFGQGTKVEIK")
"1.98e-05"
>>> reported_result("VRDN-02047 (antibody, V domains shown) VH: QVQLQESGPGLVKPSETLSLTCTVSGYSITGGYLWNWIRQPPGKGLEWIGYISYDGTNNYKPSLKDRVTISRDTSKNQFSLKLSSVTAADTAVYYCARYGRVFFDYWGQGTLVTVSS VL: DIVMTQSPLSLPVTPGEPASISCRSSQSIVHSNGNTYLQWYLQKPGQSPQLLIYKVSHRLYGVPDRFSGSGSGTDFTLKISRVEAEDVGVYYCFQGSHVPWTFGQGTKVEIK")
"5.34e-05"

Q: What value of measured koff is listed for VRDN-02043 (antibody, V domains shown) VH: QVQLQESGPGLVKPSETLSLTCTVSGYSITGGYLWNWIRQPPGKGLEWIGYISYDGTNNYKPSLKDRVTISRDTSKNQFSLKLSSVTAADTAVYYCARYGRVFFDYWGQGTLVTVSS VL: DIVMTQSPLSLPVTPGEPASISCRSSQSIVHSNGNTYLHWYLQKPGQSPQLLIYKVSNRLYGVPDRFSGSGSGTDFTLKISRVEAEDVGVYYCFQGSHVPWTFGQGTKVEIK ?
Ans: 6.22e-05
